experimentalSystem: HLA-DQ2.2 (human)
experimentalDetails: competition with radiolabeled probe peptide, purified MHC class II
quantityName: IC50 (µM)
Report the value in µM with no unit label.

Data request, read-out IC50, for QPPSSEQQHSPPSQQ [… (SEQ ID NO: 81)] 39.8

All figures here come from patent US20250074955A1.
